Target: Phosphatidylinositol 4,5-bisphosphate 3-kinase catalytic subunit beta isoform (Homo sapiens)
Assay: Inhibition of PI3Kbeta (unknown origin) using biotin-PIP3 as substrate preincubated for 15 mins followed by substrate addition and measured after 60 mins by fluorescence polarization assay
pIC50: −log10 of the molar value.
assayReadout: pIC50

Past entries and their recorded results:
INSERT INTO measurements (compound, assayreadout, testresult) VALUES
  ('COCC(=O)NC1CCN(Cc2cc3nc(-c4cnc(N)nc4)nc(N4CCOCC4)c3s2)CC1', 'pIC50', 6.10),
  ('COCC(=O)NC1CCCN(Cc2cc3nc(-c4cnc(N)nc4)nc(N4CCOCC4)c3s2)C1 (racemic)', 'pIC50', 5.00),
  ('CNC(=O)NC1CCN(Cc2cc3nc(-c4cccc5[nH]ccc45)nc(N4CCOCC4)c3s2)CC1', 'pIC50', 5.60),
  ('CC(=O)NC1CCN(Cc2cc3nc(-c4cccc5[nH]ncc45)nc(N4CCOCC4)c3s2)CC1', 'pIC50', 5.20);

(P) COCC(=O)N(C)C1CCN(Cc2cc3nc(-c4cccc5[nH]ncc45)nc(N4CCOCC4)c3s2)C1 (racemic)
(Q) COCC(=O)N(C)C1CCCN(Cc2cc3nc(-c4cnc(N)nc4)nc(N4CCOCC4)c3s2)C1 (racemic)
(R) CNC(=O)NC1CCCN(Cc2cc3nc(-c4cccc5[nH]ncc45)nc(N4CCOCC4)c3s2)C1 (racemic)
(S) CN(C1CCN(Cc2cc3nc(-c4cnc(N)nc4)nc(N4CCOCC4)c3s2)CC1)S(C)(=O)=O
(T) CC(=O)NC1CCCN(Cc2cc3nc(-c4cccc5[nH]ccc45)nc(N4CCOCC4)c3s2)C1 (racemic)
(Q) Output the entries ranked by pIC50 from maximum down to minimum. Please respond by ranking the labels in the order requested.
(A) S, Q, T, P, R

(a) CS(=O)(=O)NC1CCN(Cc2cc3nc(-c4cccc5[nH]ncc45)nc(N4CCOCC4)c3s2)CC1
(b) COCC(=O)NC1CCN(Cc2cc3nc(-c4cccc5[nH]ncc45)nc(N4CCOCC4)c3s2)C1 (racemic)
(Q) Of a and b , which carries the smaller reported pIC50 figure? API: response body contains the label of the selected item.
(A) b
(b: 5.50, a: 5.90)

* * *

Assay: Solubility of compound by CLND method
Assay type: physicochemical
assayReadout: solubility kinetic (µM)

In the examples that follow, each entry is paired with its recorded solubility kinetic.
INSERT INTO results (compound, endpointunit, testresult) VALUES
  ('CC(=O)N(C)C1CCN(Cc2cc3nc(-c4cccc5[nH]ccc45)nc(N4CCOCC4)c3s2)C1 (racemic)', 'µM', 251),
  ('COCC(=O)N(C)C1CCCN(Cc2cc3nc(-c4cccc5[nH]ccc45)nc(N4CCOCC4)c3s2)C1 (racemic)', 'µM', 85),
  ('COCC(=O)N(C)C1CCN(Cc2cc3nc(-c4cccc5[nH]ccc45)nc(N4CCOCC4)c3s2)C1 (racemic)', 'µM', 179);

(a) COCC(=O)N(C)C1CCN(Cc2cc3nc(-c4cccc5[nH]ccc45)nc(N4CCOCC4)c3s2)CC1
(b) CN(C1CCN(Cc2cc3nc(-c4cnc(N)nc4)nc(N4CCOCC4)c3s2)CC1)S(C)(=O)=O
(Q) Of the two listed items, which has the higher solubility kinetic? First: a Second: b Lab note: record the label of whichever item you select.
(A) a

* * *

Biological target: Phosphatidylinositol 4,5-bisphosphate 3-kinase catalytic subunit gamma isoform (Homo sapiens)
Sequence (P48736 whole entry, canonical isoform): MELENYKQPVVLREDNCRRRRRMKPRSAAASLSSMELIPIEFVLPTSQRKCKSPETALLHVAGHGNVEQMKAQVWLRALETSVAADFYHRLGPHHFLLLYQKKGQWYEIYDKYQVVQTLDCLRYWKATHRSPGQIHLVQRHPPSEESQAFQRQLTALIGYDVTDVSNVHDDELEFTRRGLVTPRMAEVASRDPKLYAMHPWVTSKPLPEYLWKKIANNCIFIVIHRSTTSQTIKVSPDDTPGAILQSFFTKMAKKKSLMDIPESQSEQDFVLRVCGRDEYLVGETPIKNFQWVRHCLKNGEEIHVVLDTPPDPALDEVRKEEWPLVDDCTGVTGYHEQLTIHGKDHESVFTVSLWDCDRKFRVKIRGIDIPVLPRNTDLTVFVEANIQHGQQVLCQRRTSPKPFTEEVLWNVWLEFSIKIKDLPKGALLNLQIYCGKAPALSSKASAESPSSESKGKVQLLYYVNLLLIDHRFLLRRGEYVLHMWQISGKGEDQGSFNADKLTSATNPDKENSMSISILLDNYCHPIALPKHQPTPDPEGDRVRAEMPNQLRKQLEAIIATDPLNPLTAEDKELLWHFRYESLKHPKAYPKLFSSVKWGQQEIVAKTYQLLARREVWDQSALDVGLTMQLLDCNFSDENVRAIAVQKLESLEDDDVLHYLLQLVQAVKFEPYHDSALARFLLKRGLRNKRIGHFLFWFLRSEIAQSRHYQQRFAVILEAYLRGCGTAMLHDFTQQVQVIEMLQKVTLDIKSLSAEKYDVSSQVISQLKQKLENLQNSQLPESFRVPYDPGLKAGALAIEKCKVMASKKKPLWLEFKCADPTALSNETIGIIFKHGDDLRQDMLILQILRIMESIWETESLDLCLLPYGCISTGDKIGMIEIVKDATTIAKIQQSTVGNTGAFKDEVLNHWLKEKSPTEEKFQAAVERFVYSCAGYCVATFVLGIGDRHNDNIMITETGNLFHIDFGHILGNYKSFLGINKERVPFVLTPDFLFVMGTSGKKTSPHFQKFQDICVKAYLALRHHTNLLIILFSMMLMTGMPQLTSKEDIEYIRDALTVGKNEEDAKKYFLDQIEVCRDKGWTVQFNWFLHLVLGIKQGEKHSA
assayReadout: IC50 (µM)

INSERT INTO measurements (molecule, endpointunit, testresult) VALUES
  ('CS(=O)(=O)NC1CCN(Cc2cc3nc(-c4cccc5[nH]ccc45)nc(N4CCOCC4)c3s2)CC1', 'µM', 1);

(A) COCC(=O)NC1CCCN(Cc2cc3nc(-c4cnc(N)nc4)nc(N4CCOCC4)c3s2)C1 (racemic)
(B) CN(C1CCCN(Cc2cc3nc(-c4cnc(N)nc4)nc(N4CCOCC4)c3s2)C1)S(C)(=O)=O (racemic)
(C) COCC(=O)N(C)C1CCCN(Cc2cc3nc(-c4cnc(N)nc4)nc(N4CCOCC4)c3s2)C1 (racemic)
(Q) # sort list by recorded IC50, greatest to least A complete answer lists every label in the requested sequence.
(A) A, C, B
(A: 0.631 µM, C: 0.126 µM, B: 0.0251 µM)

(A) CC(=O)NC1CCCN(Cc2cc3nc(-c4cnc(N)nc4)nc(N4CCOCC4)c3s2)C1 (racemic)
(B) CC(=O)N(C)C1CCCN(Cc2cc3nc(-c4cccc5[nH]ccc45)nc(N4CCOCC4)c3s2)C1 (racemic)
(Q) Name the one with the greater IC50 value, either A or B as given. Select an item and report its label.
(A) B
(B: 2.51 µM, A: 0.158 µM)

* * *

Target: Phosphatidylinositol 4,5-bisphosphate 3-kinase catalytic subunit alpha isoform (Homo sapiens, UniProt P42336)
Sequence (P42336 whole entry, canonical isoform): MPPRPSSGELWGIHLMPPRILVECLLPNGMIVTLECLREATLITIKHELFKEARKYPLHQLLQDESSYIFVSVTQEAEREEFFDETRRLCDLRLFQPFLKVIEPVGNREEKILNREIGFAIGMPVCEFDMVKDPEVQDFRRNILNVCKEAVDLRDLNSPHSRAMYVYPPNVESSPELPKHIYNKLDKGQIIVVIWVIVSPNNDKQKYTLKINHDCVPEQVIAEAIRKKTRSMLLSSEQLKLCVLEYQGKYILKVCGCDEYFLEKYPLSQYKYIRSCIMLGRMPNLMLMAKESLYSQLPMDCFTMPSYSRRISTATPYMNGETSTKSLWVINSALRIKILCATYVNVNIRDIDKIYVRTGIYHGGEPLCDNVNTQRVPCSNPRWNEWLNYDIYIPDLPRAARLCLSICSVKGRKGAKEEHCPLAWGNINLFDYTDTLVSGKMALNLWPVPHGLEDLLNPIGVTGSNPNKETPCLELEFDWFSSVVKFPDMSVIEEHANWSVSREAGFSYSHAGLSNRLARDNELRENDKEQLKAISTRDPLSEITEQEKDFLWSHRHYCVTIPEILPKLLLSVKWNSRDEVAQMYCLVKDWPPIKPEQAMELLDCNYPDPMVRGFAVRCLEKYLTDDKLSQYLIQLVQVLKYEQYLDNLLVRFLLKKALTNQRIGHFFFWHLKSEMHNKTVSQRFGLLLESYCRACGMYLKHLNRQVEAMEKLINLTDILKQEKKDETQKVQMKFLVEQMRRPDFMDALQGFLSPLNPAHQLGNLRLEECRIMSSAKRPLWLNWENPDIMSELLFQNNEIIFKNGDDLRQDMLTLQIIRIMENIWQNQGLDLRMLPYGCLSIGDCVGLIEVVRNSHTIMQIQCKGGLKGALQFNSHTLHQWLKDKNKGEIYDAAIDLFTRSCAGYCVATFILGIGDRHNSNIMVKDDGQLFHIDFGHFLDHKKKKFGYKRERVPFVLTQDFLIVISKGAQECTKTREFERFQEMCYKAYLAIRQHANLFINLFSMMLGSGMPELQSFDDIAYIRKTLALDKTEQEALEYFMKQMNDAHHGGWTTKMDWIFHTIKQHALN
assayReadout: IC50 (nM)

(a) CNC(=O)N(C)C1CCN(Cc2cc3nc(-c4cccc5[nH]ncc45)nc(N4CCOCC4)c3s2)C1 (racemic)
(b) CNC(=O)N(C)C1CCCN(Cc2cc3nc(-c4cccc5[nH]ccc45)nc(N4CCOCC4)c3s2)C1 (racemic)
(Q) In the pair a and b , the larger recorded IC50 belongs to which? Answer = label.
(A) b
(b: 3160 nM, a: 794 nM)

(P) COCC(=O)N(C)C1CCCN(Cc2cc3nc(-c4cnc(N)nc4)nc(N4CCOCC4)c3s2)C1 (racemic)
(Q) COCC(=O)NC1CCCN(Cc2cc3nc(-c4cnc(N)nc4)nc(N4CCOCC4)c3s2)C1 (racemic)
(Q) Of P and Q , which one carries the higher reported IC50? Response format: the label of the selected entry.
(A) Q

* * *

Biological target: Phosphatidylinositol 4,5-bisphosphate 3-kinase catalytic subunit beta isoform (Homo sapiens, UniProt P42338)
Sequence (P42338 whole entry, canonical isoform): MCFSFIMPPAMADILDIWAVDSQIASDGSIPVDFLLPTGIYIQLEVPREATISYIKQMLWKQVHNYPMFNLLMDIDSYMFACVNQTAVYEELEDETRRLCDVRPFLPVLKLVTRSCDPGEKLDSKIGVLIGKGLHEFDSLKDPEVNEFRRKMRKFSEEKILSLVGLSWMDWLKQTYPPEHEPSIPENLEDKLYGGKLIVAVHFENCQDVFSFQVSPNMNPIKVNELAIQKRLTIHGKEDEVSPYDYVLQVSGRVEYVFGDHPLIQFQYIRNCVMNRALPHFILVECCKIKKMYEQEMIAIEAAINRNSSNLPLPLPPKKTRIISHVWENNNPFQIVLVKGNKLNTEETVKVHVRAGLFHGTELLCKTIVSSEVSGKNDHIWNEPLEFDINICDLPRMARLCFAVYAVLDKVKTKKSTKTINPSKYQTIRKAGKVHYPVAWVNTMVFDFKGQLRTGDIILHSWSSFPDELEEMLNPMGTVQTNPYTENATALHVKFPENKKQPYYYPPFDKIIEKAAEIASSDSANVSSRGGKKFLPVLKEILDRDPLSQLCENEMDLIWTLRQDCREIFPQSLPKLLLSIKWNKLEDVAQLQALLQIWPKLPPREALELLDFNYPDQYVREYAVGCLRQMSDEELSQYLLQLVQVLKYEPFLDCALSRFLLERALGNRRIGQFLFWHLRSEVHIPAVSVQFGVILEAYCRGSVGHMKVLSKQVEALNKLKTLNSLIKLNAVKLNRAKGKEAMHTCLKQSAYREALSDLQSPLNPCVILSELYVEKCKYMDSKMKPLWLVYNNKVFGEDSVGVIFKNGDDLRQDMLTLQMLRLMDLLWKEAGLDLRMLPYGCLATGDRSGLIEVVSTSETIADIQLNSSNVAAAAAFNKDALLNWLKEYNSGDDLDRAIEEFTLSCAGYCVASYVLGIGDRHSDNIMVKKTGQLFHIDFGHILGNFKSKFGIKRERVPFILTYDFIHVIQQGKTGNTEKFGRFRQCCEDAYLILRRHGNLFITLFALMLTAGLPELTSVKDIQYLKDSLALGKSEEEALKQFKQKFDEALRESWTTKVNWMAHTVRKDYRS
Test: Inhibition of PI3Kbeta (unknown origin) using biotin-PIP3 as substrate preincubated for 15 mins followed by substrate addition and measured after 60 mins by fluorescence polarization assay
assayReadout: IC50 (µM)

(1) CC(=O)N(C)C1CCN(Cc2cc3nc(-c4cnc(N)nc4)nc(N4CCOCC4)c3s2)C1 (racemic)
(2) COCC(=O)N(C)C1CCCN(Cc2cc3nc(-c4cccc5[nH]ccc45)nc(N4CCOCC4)c3s2)C1 (racemic)
(Q) Compare IC50: is it lower for 1 or for 2 ? Your answer should be the label of the entry you select.
(A) 1

* * *

Test: Lipophilicity, logD of compound at pH 7.4 by HPLC-MS analysis
Settings: buffer
assayReadout: logD

In the examples that follow, each entry is paired with its recorded logD.
INSERT INTO measurements (compound, testresult) VALUES
  ('CS(=O)(=O)NC1CCN(Cc2cc3nc(-c4cccc5[nH]ccc45)nc(N4CCOCC4)c3s2)CC1', 4.4),
  ('CC(=O)N(C)[C@H]1CCN(Cc2cc3nc(-c4cnc(N)nc4)nc(N4CCOCC4)c3s2)C1', 2.5),
  ('CC(=O)NC1CCCN(Cc2cc3nc(-c4cccc5[nH]ccc45)nc(N4CCOCC4)c3s2)C1 (racemic)', 4.5),
  ('COCC(=O)NC1CCN(Cc2cc3nc(-c4cccc5[nH]ccc45)nc(N4CCOCC4)c3s2)CC1', 4.3),
  ('CN(C1CCN(Cc2cc3nc(-c4cnc(N)nc4)nc(N4CCOCC4)c3s2)C1)S(C)(=O)=O (racemic)', 3.1),
  ('CNC(=O)NC1CCN(Cc2cc3nc(-c4cnc(N)nc4)nc(N4CCOCC4)c3s2)C1 (racemic)', 1.7);

(P) CC(=O)NC1CCN(Cc2cc3nc(-c4cnc(N)nc4)nc(N4CCOCC4)c3s2)C1 (racemic)
(Q) CC(=O)N(C)C1CCN(Cc2cc3nc(-c4cccc5[nH]ncc45)nc(N4CCOCC4)c3s2)CC1
(Q) Could you tell me which of these two has the smaller logD figure? First: P Second: Q Respond using the label that marks the chosen record.
(A) P

* * *

Target: Phosphatidylinositol 4,5-bisphosphate 3-kinase catalytic subunit delta isoform (Homo sapiens)
Sequence (O00329 whole entry): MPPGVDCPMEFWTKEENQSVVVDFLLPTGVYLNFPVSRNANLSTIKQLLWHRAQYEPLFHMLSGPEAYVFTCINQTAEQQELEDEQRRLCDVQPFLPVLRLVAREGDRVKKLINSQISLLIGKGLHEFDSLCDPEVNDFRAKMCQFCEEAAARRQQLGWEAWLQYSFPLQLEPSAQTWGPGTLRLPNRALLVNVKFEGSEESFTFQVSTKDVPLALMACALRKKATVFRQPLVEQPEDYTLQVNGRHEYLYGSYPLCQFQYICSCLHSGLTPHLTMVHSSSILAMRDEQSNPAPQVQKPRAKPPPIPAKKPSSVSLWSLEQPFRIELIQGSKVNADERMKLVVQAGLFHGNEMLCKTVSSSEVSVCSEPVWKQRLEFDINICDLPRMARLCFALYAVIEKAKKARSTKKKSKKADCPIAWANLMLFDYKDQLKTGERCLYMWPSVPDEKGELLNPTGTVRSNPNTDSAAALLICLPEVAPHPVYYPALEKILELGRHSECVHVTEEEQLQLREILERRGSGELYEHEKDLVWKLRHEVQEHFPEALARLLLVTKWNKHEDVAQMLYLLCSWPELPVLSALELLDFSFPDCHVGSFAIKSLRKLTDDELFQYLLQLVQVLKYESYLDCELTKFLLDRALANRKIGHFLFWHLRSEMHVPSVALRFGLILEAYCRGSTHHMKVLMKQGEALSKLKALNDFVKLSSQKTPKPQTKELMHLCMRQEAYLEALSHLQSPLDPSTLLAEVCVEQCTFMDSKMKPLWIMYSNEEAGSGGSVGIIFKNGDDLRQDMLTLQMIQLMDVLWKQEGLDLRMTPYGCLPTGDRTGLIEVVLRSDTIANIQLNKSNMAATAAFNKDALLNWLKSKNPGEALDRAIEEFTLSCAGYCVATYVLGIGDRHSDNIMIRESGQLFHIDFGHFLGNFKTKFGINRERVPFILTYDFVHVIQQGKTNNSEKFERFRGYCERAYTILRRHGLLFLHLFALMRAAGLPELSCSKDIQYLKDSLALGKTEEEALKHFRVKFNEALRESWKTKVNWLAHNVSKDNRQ
pIC50: −log10 of the molar value.
assayReadout: pIC50

These solved cases illustrate the format of a correct answer.
INSERT INTO measurements (compound, testresult) VALUES
  ('CN(C1CCN(Cc2cc3nc(-c4cccc5[nH]ccc45)nc(N4CCOCC4)c3s2)C1)S(C)(=O)=O (racemic)', 8.00),
  ('CNC(=O)NC1CCN(Cc2cc3nc(-c4cccc5[nH]ccc45)nc(N4CCOCC4)c3s2)CC1', 6.80),
  ('CS(=O)(=O)NC1CCN(Cc2cc3nc(-c4cnc(N)nc4)nc(N4CCOCC4)c3s2)CC1', 7.60),
  ('COCC(=O)NC1CCCN(Cc2cc3nc(-c4cccc5[nH]ncc45)nc(N4CCOCC4)c3s2)C1 (racemic)', 7.00),
  ('CC(=O)N(C)[C@H]1CCN(Cc2cc3nc(-c4cnc(N)nc4)nc(N4CCOCC4)c3s2)C1', 7.90);

(P) CC(=O)N(C)C1CCN(Cc2cc3nc(-c4cccc5[nH]ccc45)nc(N4CCOCC4)c3s2)C1 (racemic)
(Q) CC(=O)N[C@H]1CCN(Cc2cc3nc(-c4cnc(N)nc4)nc(N4CCOCC4)c3s2)C1
(Q) Pick the one with the larger pIC50: P vs Q Give the label of your selection.
(A) P
